FYI, the data here is from patent US20150218281A1.

IC50, IL4 production, T-cell activation assay, donor 4 listing for selected binders.
- TARGET: T1, full length human OX40L expressed on CHO cells (human, UniProt P23510 1-183)
- T1 sequence: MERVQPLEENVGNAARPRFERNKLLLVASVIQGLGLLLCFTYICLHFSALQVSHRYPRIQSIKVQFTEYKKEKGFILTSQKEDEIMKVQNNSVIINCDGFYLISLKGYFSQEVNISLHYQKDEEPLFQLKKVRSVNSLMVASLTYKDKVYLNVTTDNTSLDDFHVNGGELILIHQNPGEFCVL
- PROTOCOL: cell-based or functional assay
ASSAY METRIC: IC50, IL4 production, T-cell activation assay, donor 4 (nM)

>>> measurement("OX40L01E07 (VHH, monovalent Nanobody from E. coli; not shown: C-terminal c-myc and His6 tag) VHH: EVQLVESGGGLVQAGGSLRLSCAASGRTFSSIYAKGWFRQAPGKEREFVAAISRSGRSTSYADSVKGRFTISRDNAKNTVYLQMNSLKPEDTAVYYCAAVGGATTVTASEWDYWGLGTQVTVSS")
169
>>> measurement("OX40L19D08 (VHH, monovalent Nanobody from E. coli; not shown: C-terminal c-myc and His6 tag) VHH: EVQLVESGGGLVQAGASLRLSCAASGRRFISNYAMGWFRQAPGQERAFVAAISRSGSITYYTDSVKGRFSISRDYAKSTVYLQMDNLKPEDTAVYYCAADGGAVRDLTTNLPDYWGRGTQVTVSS")
96
>>> measurement("OX40L01E10 (VHH, monovalent Nanobody from E. coli; not shown: C-terminal c-myc and His6 tag) VHH: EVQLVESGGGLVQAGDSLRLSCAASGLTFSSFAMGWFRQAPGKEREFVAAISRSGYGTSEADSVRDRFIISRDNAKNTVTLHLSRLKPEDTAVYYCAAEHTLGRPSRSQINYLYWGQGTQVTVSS")
12
>>> measurement("OX40L18E09 (VHH, monovalent Nanobody from E. coli; not shown: C-terminal c-myc and His6 tag) VHH: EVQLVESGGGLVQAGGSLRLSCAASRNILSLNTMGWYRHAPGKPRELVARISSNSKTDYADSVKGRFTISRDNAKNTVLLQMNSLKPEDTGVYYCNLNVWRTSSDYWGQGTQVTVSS")
49
